Value source: patent US9701680B2

- System: KG-1
- test.summary: Cellular Proliferation Assay (Cell Counting Kit-8), KG-1
- Type: cell-based
- recorded.conditions: Homo sapiens; KG-1 cells, 72 hours; read-out: KG1 IC50
measurement.label: IC50 (nM)
Could you give me the number in nM? Just the number is fine.

Consider the compound CNC(=O)c1cc(COc2cnc(Nc3ccc([C@H]4CCCNC4)nc3)nc2)c(Cl)c(OC)c1 [Compound 245] and give its measured IC50.
533

Look up IC50: CCN1CCN(c2ccc(Nc3ncc(C#Cc4cc(C(=O)NC)cc(OC)c4F)cn3)cc2OC)CC1 [Compound 307]
5

Fill in: IC50 of CCN(CC)CCOc1ccc(Nc2ncc(OCc3cc(C(=O)NC)cc(OC)c3F)cn2)cc1 [Compound 262] is ___
37

Which IC50 value is on record for CNC(=O)c1cc(CCc2cnc(Nc3ccc(N4C[C@@H](C)N[C@@H](C)C4)c(OC)c3)nc2)c(F)c(OC)c1 [Compound 156] ?
218

Which IC50 is reported for this compound? CNC(=O)c1cc(COc2cnc(Nc3ccc(N4C[C@@H](C)N[C@@H](C)C4)nc3)nc2)c(F)c(OC)c1 [Compound 257]
103

Can you share its IC50? I mean this compound: CNC(=O)c1cc(COc2cnc(Nc3ccc(N4CCOCC4)nc3)nc2)c(Cl)c(OC)c1 [Compound 247]
42

// IC50 lookup, key: CNC(=O)c1cc(COc2cnc(Nc3ccc(N4CCN(C)CC4)c(OC)c3)nc2)c(F)c(OC)c1 [Compound 269]
6

Give its IC50 value. Item: CNC(=O)c1cc(COc2cnc(Nc3ccc(OC)c(N4CCN(C)CC4)c3)nc2)c(F)c(OC)c1 [Compound 270]
52

Looking for the measured IC50 of CNC(=O)c1cc(COc2cnc(Nc3cccc(NC(C)=O)c3)nc2)c(F)c(OC)c1 [Compound 216] , can you help?
24

Consider the compound shown here: CNC(=O)c1cc(COc2cnc(Nc3cnc(N4C[C@@H](C)N[C@@H](C)C4)nc3)nc2)c(Cl)c(OC)c1 [Compound 276] What is its recorded IC50?
83

Fill in: IC50 of CCN1CCN(c2ccc(Nc3ncc(OCc4cc(C(=O)NC)cc(OC)c4F)cn3)cc2OC)CC1 [Compound 283] is ___
8

# query: IC50 of entry CNC(=O)c1cc(COc2cnc(Nc3ccc(N4CCC(N(C)C)CC4)cc3)nc2)c(F)c(OC)c1 [Compound 264]
7

Could you tell me which IC50 is on file for CNC(=O)c1cc(COc2cnc(Nc3ccc(N4CCN(C)CC4)c(OC)c3)nc2)c(Cl)c(OC)c1 [Compound 288] ?
2

Which value of IC50 has been reported for CCN1[C@H](C)CN(c2ccc(Nc3ncc(CCc4cc(C(=O)NC)cc(OC)c4Cl)cn3)cn2)C[C@@H]1C [Compound 159] in the records?
26

Please look up its IC50: CNC(=O)c1cc(COc2cnc(Nc3ccc(-n4cnnc4)cc3)nc2)c(F)c(OC)c1 [Compound 223]
102

----------
Assignment: determine reported IC50 for the given molecules.
- assayed.target: Recombinant human FGFR2 (Homo sapiens, UniProt P21802)
- Sequence (P21802 22-821): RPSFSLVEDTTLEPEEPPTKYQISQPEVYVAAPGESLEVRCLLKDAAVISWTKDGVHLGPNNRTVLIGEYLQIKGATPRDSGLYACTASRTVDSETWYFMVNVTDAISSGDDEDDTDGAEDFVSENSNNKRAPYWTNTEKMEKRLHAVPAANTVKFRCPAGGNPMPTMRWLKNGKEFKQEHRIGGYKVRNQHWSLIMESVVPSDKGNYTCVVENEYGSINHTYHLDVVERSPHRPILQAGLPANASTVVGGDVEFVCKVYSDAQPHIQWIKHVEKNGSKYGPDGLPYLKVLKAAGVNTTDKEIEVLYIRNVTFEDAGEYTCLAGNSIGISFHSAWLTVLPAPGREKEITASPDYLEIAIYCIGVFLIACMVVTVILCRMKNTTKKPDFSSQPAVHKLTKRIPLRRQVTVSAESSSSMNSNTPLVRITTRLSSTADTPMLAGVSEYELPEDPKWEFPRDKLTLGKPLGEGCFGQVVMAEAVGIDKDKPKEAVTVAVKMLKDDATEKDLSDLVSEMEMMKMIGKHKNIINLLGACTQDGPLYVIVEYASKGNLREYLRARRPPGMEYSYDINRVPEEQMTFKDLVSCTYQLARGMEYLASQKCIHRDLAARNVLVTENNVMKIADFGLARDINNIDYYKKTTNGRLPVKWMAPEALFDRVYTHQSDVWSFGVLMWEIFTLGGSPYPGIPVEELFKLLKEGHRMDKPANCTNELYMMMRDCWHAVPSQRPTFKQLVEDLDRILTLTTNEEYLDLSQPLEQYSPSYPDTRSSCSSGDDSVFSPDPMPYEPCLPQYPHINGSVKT
- test.summary: Transcreener Kinase Assay of FGFR2
- Type: biochemical
- recorded.conditions: FP
Express the result in nM but write the number alone.

Please state recorded IC50 (tested on Recombinant human FGFR2 (Homo sapiens, UniProt P21802)) of CNC(=O)c1cc(COc2cnc(Nc3ccc(N4CCN(C5CC5)CC4)c(OC)c3)nc2)c(F)c(OC)c1
6

Provide the documented IC50 with Recombinant human FGFR2 (Homo sapiens, UniProt P21802) as the system for CNC(=O)c1cc(COc2cnc(Nc3ccc(O[C@@H]4O[C@H](CO)[C@@H](O)[C@H](O)[C@H]4O)cc3)nc2)c(Cl)c(OC)c1
7

Form entry - test system: Recombinant human FGFR2 (Homo sapiens, UniProt P21802); read-out: IC50; molecule: CNC(=O)c1cc(COc2cnc(Nc3cnc(N4C[C@@H](C)N[C@@H](C)C4)c(C)c3)nc2)c(Cl)c(OC)c1
8

Give the reported IC50 for CNC(=O)c1cc(COc2cnc(Nc3ccc(N4CCN(C5CCCC5)CC4)c(OC)c3)nc2)c(F)c(OC)c1 (system: Recombinant human FGFR2 (Homo sapiens, UniProt P21802)).
7

Recall the recorded IC50 for CCN1CCN(c2ccc(Nc3ncc(C#Cc4cc(C(=O)NC)cc(OC)c4F)cn3)cc2OC)CC1 with Recombinant human FGFR2 (Homo sapiens, UniProt P21802) and state it.
17

Reported IC50 for Recombinant human FGFR2 (Homo sapiens, UniProt P21802), given CCN1[C@H](C)CN(c2ccc(Nc3ncc(OCc4cc(C(=O)NC)cc(OC)c4F)cn3)cn2)C[C@@H]1C ?
14

Value wanted: IC50 (Recombinant human FGFR2 (Homo sapiens, UniProt P21802)) of entry CNC(=O)c1cc(OC)c(Cl)c(COc2cnc(Nc3ccc(N4C[C@@H](C)N[C@@H](C)C4)c(C)c3)nc2)c1F
8

Test system Recombinant human FGFR2 (Homo sapiens, UniProt P21802); read-out IC50; what value for CNC(=O)c1cc(OC)c(F)c(COc2cnc(Nc3ccc(N4C[C@@H](C)N[C@@H](C)C4)nc3)nc2)c1F ?
14

Enter reported IC50 observed with Recombinant human FGFR2 (Homo sapiens, UniProt P21802) for CNC(=O)c1cc(COc2cnc(Nc3ccc(N4C[C@@H]5CCN(C)[C@@H]5C4)c(OC)c3)nc2)c(F)c(OC)c1
8

Field: IC50 (Recombinant human FGFR2 (Homo sapiens, UniProt P21802)). Entry: CCN1CCN(c2ccc(Nc3ncc(OCc4cc(C(=O)NC)cc(OC)c4F)cn3)cc2OC)CC1
5

Record CNC(=O)c1cc(OC)c(Cl)c(COc2cnc(Nc3ccc(N4C[C@@H](C)N[C@@H](C)C4)c(F)c3)nc2)c1F : what is its IC50 with Recombinant human FGFR2 (Homo sapiens, UniProt P21802)?
6

Recorded IC50 for CNC(=O)c1cc(OC)c(Cl)c(COc2cnc(Nc3ccc(N4C[C@@H](C)N[C@@H](C)C4)nc3)nc2)c1F with Recombinant human FGFR2 (Homo sapiens, UniProt P21802), please?
18

Item: CNC(=O)c1cc(COc2cnc(Nc3cccc(CCN4CCN(CCOC)CC4)c3)nc2)c(F)c(OC)c1 Test system: Recombinant human FGFR2 (Homo sapiens, UniProt P21802) Read-out: IC50 Value: ?
6

Provide value of IC50 for this record tested with Recombinant human FGFR2 (Homo sapiens, UniProt P21802): CNC(=O)c1cc(COc2cnc(Nc3ccc(N4CCN(C)CC4)c(OC)c3)nc2)c(Cl)c(OC)c1
4

Value wanted: IC50 (Recombinant human FGFR2 (Homo sapiens, UniProt P21802)) of entry CCN(CC)CCNC(C)c1ccc(Nc2ncc(OCc3cc(C(=O)NC)cc(OC)c3Cl)cn2)cc1 (stereo not shown)
13

Give IC50 (Recombinant human FGFR2 (Homo sapiens, UniProt P21802)) of the following molecule: CNC(=O)c1cc(COc2cnc(Nc3ccc(N4C[C@@H](C)N[C@@H](C)C4)c(OC)c3)nc2)c(F)c(OC)c1
9

Which IC50 is reported with Recombinant human FGFR2 (Homo sapiens, UniProt P21802) for this entry: CNC(=O)c1cc(OC)c(Cl)c(COc2cnc(Nc3ccc(N4C[C@@H](C)N[C@@H](C)C4)cc3)nc2)c1F ?
7

Param readout= IC50; system= Recombinant human FGFR2 (Homo sapiens, UniProt P21802); entry= CNC(=O)c1cc(COc2cnc(Nc3ccc([C@H]4CCCN(C(C)=O)C4)nc3)nc2)c(Cl)c(OC)c1 ; returns value.
24

For Recombinant human FGFR2 (Homo sapiens, UniProt P21802), provide IC50 of CNC(=O)c1cc(C#Cc2cnc(Nc3ccc(N4C[C@@H](C)N[C@@H](C)C4)c(OC)c3)nc2)c(F)c(OC)c1 please.
12

Notebook entry, Recombinant human FGFR2 (Homo sapiens, UniProt P21802) assay: IC50 of CNC(=O)c1cc(COc2cnc(Nc3cnc(N4C[C@@H](C)N[C@@H](C)C4)c(F)c3)nc2)c(Cl)c(OC)c1 = ?
11

// lookup IC50 | system=Recombinant human FGFR2 (Homo sapiens, UniProt P21802) | key= CCN1CCC(c2ccc(Nc3ncc(OCc4cc(C(=O)NC)cc(OC)c4F)cn3)cc2OC)CC1
18

Report IC50 for CNC(=O)c1cc(COc2cnc(Nc3ccc(N4C[C@@H](C)N(C)[C@@H](C)C4)cc3)nc2)c(Cl)c(OC)c1 tested on Recombinant human FGFR2 (Homo sapiens, UniProt P21802).
6
